experimental.target: T1, human C-MET His tagged, monomeric (human, UniProt P08581 25-932)
T1 construct: also called monomeric human C-MET; biotinylated human C-MET-His
T1 sequence (P08581 25-932): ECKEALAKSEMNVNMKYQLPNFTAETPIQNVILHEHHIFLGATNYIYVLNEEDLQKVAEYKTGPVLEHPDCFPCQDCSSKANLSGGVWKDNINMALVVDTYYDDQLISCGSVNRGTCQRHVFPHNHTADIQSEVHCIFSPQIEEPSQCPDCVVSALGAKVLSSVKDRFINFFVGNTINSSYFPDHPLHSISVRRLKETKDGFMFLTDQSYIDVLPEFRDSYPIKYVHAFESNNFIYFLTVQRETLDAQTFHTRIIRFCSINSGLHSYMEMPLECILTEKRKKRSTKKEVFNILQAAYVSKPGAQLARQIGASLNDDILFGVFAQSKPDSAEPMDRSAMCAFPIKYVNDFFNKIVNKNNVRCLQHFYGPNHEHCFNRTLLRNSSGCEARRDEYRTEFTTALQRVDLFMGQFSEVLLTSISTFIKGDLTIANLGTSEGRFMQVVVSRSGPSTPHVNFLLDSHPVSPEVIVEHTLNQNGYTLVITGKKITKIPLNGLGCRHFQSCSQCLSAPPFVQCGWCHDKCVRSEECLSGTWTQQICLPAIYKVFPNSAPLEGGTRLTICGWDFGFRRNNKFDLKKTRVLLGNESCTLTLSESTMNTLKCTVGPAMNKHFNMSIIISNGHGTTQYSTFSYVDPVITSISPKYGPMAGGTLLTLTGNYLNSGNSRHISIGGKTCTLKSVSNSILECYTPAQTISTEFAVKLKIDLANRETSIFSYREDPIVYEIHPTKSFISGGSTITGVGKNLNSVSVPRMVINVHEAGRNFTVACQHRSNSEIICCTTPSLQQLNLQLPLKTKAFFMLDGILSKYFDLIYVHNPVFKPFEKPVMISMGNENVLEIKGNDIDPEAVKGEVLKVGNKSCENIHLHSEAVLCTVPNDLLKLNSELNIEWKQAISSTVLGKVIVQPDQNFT
method.summary: SPR Biacore, IgG captured, monomeric C-MET-His analyte
Answer condition not met if kon is under 90000 M⁻¹ s⁻¹, and condition met if it is 90000 M⁻¹ s⁻¹ or more.

{"columns": ["binder", "class.label"],
 "data": [
  ["04F09 (antibody, IgG4, V domains shown) VH: QVQLVQSGAEVKKPGASVKVSCKASGYIFTSYSMHWVRQAPGQGLEWMGWINPSNGLANYAQKFQGRVTMTRDTSTSTVYMELSSLRSEDTAVYYCARQEITTEFDIWGQGTLVTVSS VL: EIVLTQSPGTLSLSPGERATLSCRASQSVESYAQSYLHWYQQKPGQAPRLLIYRGSTRESGIPDRFSGSGSGTDFTLTISRLEPEDFAVYYCQQSKSDPLTFGGGTKVEIK", "condition met"],
  ["08B12 (antibody, IgG4, V domains shown) VH: QVQLVQSGAEVKKPGASVKVSCKASGYIFTAYSMHWVRQAPGQGLEWMGWIKPNNGSTNYAQKFQGRVTMTRDTSTSTVYMELSSLRSEDTAVYYCARTEITTEFDYWGQGTLVTVSS VL: EIVLTQSPGTLSLSPGERATLSCRASQSVDSYANSYLHWYQQKPGQAPRLLIYRGSTRETGIPDRFSGSGSGTDFTLTISRLEPEDFAVYYCQQSKSDPLTFGGGTKVEIK", "condition not met"],
  ["Grafted clone (Graft), IGHV1-46/IGKV3-20 CDR graft of 224G11 (antibody, human IgG4, V domains shown, also called VH graft/VL graft) VH: QVQLVQSGAEVKKPGASVKVSCKASGYIFTAYTMHWVRQAPGQGLEWMGWIKPNNGLANYAQKFQGRVTMTRDTSTSTVYMELSSLRSEDTAVYYCARSEITTEFDYWGQGTLVTVSS VL: EIVLTQSPGTLSLSPGERATLSCRASQSVDSYANSFLHWYQQKPGQAPRLLIYRASTRESGIPDRFSGSGSGTDFTLTISRLEPEDFAVYYCQQSKEDPLTFGGGTKVEIK", "condition met"],
  ["07C10 (antibody, IgG4, V domains shown) VH: QVQLVQSGAEVKKPGASVKVSCKASGYIFTAYSMHWVRQAPGQGLEWMGIIKPSNGSTNYAQKFQGRVTMTRDTSTSTVYMELSSLRSEDTAVYYCARAEITTEFDYWGQGTLVTVSS VL: EIVLTQSPGTLSLSPGERATLSCRASQSVESYAQSYLHWYQQKPGQAPRLLIYRGSTRESGIPDRFSGSGSGTDFTLTISRLEPEDFAVYYCQQSKEEPLTFGGGTKVEIK", "condition met"],
  ["04E10 (antibody, IgG4, V domains shown) VH: QVQLVQSGAEVKKPGASVKVSCKASGYIFTSYTMHWVRQAPGQGLEWMGWIKPNNGSASYAQKFQGRVTMTRDTSTSTVYMELSSLRSEDTAVYYCARSEITTEEDYWGQGTLVTVSS VL: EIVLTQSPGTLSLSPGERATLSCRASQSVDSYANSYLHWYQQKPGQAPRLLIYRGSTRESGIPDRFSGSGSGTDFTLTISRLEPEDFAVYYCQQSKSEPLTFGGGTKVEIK", "condition not met"],
  ["MH7-3 (antibody, human IgG4, V domains shown) VH: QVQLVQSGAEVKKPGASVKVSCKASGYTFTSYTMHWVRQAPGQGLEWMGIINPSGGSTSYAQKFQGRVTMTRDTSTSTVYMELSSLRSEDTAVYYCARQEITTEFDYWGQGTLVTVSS VL: EIVLTQSPGTLSLSPGERATLSCRASQSVSSYAQSYLHWYQQKPGQAPRLLIYRGSTRETGIPDRFSGSGSGTDFTLTISRLEPEDFAVYYCQQSKESPLTFGGGTKVEIK", "condition met"],
  ["MH2 (antibody, IgG4, V domains shown) VH: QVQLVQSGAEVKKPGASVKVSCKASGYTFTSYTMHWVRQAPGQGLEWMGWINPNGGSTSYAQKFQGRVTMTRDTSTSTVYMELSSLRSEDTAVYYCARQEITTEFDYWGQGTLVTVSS VL: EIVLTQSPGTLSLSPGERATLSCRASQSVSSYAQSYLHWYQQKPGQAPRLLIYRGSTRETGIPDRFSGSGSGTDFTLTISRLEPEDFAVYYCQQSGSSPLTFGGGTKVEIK", "condition not met"],
  ["MH11 (antibody, IgG4, V domains shown) VH: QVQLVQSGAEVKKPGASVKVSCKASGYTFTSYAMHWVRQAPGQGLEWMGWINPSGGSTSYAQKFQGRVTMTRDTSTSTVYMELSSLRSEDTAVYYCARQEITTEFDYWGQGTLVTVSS VL: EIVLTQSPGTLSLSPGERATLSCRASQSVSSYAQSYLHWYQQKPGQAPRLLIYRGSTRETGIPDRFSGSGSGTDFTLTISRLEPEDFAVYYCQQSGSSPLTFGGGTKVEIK", "condition not met"],
  ["MH10 (antibody, IgG4, V domains shown) VH: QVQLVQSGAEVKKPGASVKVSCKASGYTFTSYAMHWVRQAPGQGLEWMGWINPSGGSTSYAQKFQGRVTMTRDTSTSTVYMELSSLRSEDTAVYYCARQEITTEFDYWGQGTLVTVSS VL: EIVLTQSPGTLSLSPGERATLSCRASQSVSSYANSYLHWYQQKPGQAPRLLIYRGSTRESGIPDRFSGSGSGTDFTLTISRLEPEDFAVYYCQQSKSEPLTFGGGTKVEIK", "condition not met"]
]}
